Molecular target: SOS-mediated nucleotide exchange on Ras (Homo sapiens)
Assay: SOS-mediated nucleotide exchange on Ras (BODIPY-GDP fluorescence)
Conditions: Ras loaded with BODIPY-GDP, GTP and SOS added; EC50 from derived exchange rates
pEC50: −log10 of the molar value.
For each entry below, report its pEC50 value.

**Q:** State the recorded pEC50 for this entry: C[C@@H](Nc1nc(NCCc2c[nH]cn2)nc2c(C3=CCNCC3)cccc12)C1CC1
**A:** < 4.52

**Q:** State the recorded pEC50 for this entry: C[C@@H](Nc1nc(NCC2CCCCC2)nc2c(CCN)cccc12)C1CC1
**A:** 5.30 to 6.00

**Q:** State the recorded pEC50 for this entry: C[C@@H](Nc1nc(Cc2cc(F)cc(F)c2)nc2ccccc12)C1CC1
**A:** 4.52 to 5.30

**Q:** State the recorded pEC50 for this entry: CC[C@@H](Nc1nc(Nc2ccc(F)c(Cl)c2)nc2ccccc12)C1CC1
**A:** 4.52 to 5.30

**Q:** State the recorded pEC50 for this entry: Cc1ccc(CNc2nc(Nc3ccc(F)c(Cl)c3)nc3ccccc23)o1
**A:** 4.52 to 5.30

---

Target: UniProtKB Q07889
Assay: SOS-mediated nucleotide exchange on Ras (BODIPY-GDP fluorescence)
Assay type: biochemical
Conditions: Ras loaded with BODIPY-GDP, GTP and SOS added; EC50 from derived exchange rates
measured.quantity: EC50

**Q:** State the recorded EC50 for this entry: CC[C@@H](Nc1nc(Nc2ccc(F)c(Cl)c2)nc2c(C3=CCNCC3)cccc12)c1cccs1
**A:** 5 to 30 µM

**Q:** State the recorded EC50 for this entry: C[C@@H](Nc1nc(NCC2CCCC2)nc2c(C3=CCNCC3)cccc12)C1CC1
**A:** 1 to 5 µM

**Q:** State the recorded EC50 for this entry: C[C@@H](Nc1nc(NCC2CCCCC2)nc2c(CN)cccc12)c1cccs1
**A:** 1 to 5 µM

**Q:** State the recorded EC50 for this entry: C=CC[C@@H](Nc1nc(Nc2cc(F)cc(F)c2)nc2c(C3=CCNCC3)cccc12)C1CC1
**A:** 1 to 5 µM

**Q:** State the recorded EC50 for this entry: NCc1cccc2c(NC(C3CC3)C3CC3)nc(NCC3CCCCC3)nc12
**A:** 5 to 30 µM

**Q:** State the recorded EC50 for this entry: CCC(C)CNc1nc(Nc2ccc(F)c(Cl)c2)nc2ccccc12 (centres unmarked)
**A:** 5 to 30 µM

**Q:** State the recorded EC50 for this entry: c1coc(CNc2nc(Nc3ccc4[nH]nnc4c3)nc3ccccc23)c1
**A:** > 30 µM

**Q:** State the recorded EC50 for this entry: C[C@@H](Nc1nc(NCc2ccccc2F)nc2ccccc12)C1CC1
**A:** 5 to 30 µM

**Q:** State the recorded EC50 for this entry: C[C@@H](Nc1nc(Nc2ccc(F)c(Cl)c2)nc2c(N3CCOCC3)cccc12)C1CC1
**A:** 5 to 30 µM

**Q:** State the recorded EC50 for this entry: CCC(CC)CNc1nc(Nc2ccc(F)c(Cl)c2)nc2ccccc12
**A:** 1 to 5 µM

**Q:** State the recorded EC50 for this entry: CCOCCc1cccc2c(N[C@H](C)C3CC3)nc(Nc3ccc(F)c(Cl)c3)nc12
**A:** > 30 µM

**Q:** State the recorded EC50 for this entry: C=CC[C@@H](Nc1nc(NCC2CCCCC2)nc2c(C3=CCNCC3)cccc12)C1CC1
**A:** 1 to 5 µM

**Q:** State the recorded EC50 for this entry: CCC(Nc1nc(Nc2ccc(F)c(Cl)c2)nc2ccccc12)C(C)C (centres unmarked)
**A:** 1 to 5 µM

**Q:** State the recorded EC50 for this entry: C[C@@H](Nc1nc(NCc2cccc(Cl)c2F)nc2c(CCN)cccc12)c1cccs1
**A:** 1 to 5 µM

**Q:** State the recorded EC50 for this entry: C[C@@H](Nc1nc(Nc2ccc(F)c(Cl)c2)nc2c(CNC(=N)N)cccc12)C1CC1
**A:** 5 to 30 µM

**Q:** State the recorded EC50 for this entry: CC[C@@H](Nc1nc(NCC2CCCCC2)nc2c(CCN)cccc12)C1CC1
**A:** 1 to 5 µM

**Q:** State the recorded EC50 for this entry: C[C@@H](Nc1nc(NCC2CCCCC2)nc2c(C3=CCNCC3)cccc12)c1cccs1
**A:** 1 to 5 µM

---

For each entry below, report its Ki value.
Target: Son of Sevenless (SOS) (Homo sapiens, UniProt Q07889)
Sequence (Q07889 564-1049 limits assumed): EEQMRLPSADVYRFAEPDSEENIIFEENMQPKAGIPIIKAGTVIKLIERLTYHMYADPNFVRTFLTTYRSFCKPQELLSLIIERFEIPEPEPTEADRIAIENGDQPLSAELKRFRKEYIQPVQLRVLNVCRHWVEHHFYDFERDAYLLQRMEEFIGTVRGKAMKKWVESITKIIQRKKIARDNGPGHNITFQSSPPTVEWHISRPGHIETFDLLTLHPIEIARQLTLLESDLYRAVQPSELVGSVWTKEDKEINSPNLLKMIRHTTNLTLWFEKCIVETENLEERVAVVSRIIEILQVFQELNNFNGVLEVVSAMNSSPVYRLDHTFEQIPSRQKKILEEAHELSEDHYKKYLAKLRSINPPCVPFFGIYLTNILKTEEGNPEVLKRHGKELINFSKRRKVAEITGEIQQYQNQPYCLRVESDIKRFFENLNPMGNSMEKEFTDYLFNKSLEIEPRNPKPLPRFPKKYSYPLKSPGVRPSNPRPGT

**Q:** State the recorded Ki for this entry: C[C@@H](Nc1nc(Nc2ccc(F)c(Cl)c2)nc2c(C#N)cccc12)C1CC1 [Example 55]
**A:** > 5 µM

**Q:** State the recorded Ki for this entry: Cc1cc(F)cc(Nc2nc(N[C@H](C)C(C)(C)C)c3cccc(CN)c3n2)c1 [Example 131]
**A:** > 5 µM

**Q:** State the recorded Ki for this entry: C[C@@H](Nc1nc(Oc2ccc(F)c(Cl)c2)nc2c(C3=CCNCC3)cccc12)C1CC1 [Example 69]
**A:** > 5 µM

**Q:** State the recorded Ki for this entry: CC[C@@H](Nc1nc(Nc2ccc(F)c(Cl)c2)nc2c(C3=CCNCC3)cccc12)C1CC1 [Example 51]
**A:** < 1 µM

**Q:** State the recorded Ki for this entry: CC[C@@H](Nc1nc(Nc2ccc(F)c(Cl)c2)nc2ccccc12)c1cccs1 [Example 39]
**A:** > 5 µM

**Q:** State the recorded Ki for this entry: CCC(CC)CNc1nc(Nc2ccc(F)c(Cl)c2)nc2c(C3=CCNCC3)cccc12 [Example 98]
**A:** 1 to 5 µM

**Q:** State the recorded Ki for this entry: CC[C@@H](Nc1nc(NCC2CCCCC2)nc2c(CCN)cccc12)C1CC1 [Example 127]
**A:** < 1 µM

**Q:** State the recorded Ki for this entry: CC1CCC(CNc2nc(N[C@H](C)C3CC3)c3cccc(C4=CCNCC4)c3n2)CC1 (stereo partly shown) [Example 104]
**A:** 1 to 5 µM

**Q:** State the recorded Ki for this entry: C[C@@H](Nc1nc(Nc2ccc(F)c(Cl)c2)nc2c(C(=N)N)cccc12)C1CC1 [Example 57]
**A:** > 5 µM

**Q:** State the recorded Ki for this entry: C[C@@H](Nc1nc(Nc2ccc(F)c(Cl)c2)nc2c(CN)cccc12)c1cccs1 [Example 132]
**A:** 1 to 5 µM

**Q:** State the recorded Ki for this entry: C[C@@H](Nc1nc(Nc2ccc(F)c(Cl)c2)nc2c(NCCO)cccc12)C1CC1 [Example 54]
**A:** > 5 µM

**Q:** State the recorded Ki for this entry: C[C@@H](Nc1nc(Nc2ccc(F)c(Cl)c2)nc2c(C3=CCN(C)CC3)cccc12)C1CC1 [Example 120]
**A:** 1 to 5 µM

**Q:** State the recorded Ki for this entry: CCC(CC)CNc1nc(Nc2ccc(F)c(Cl)c2)nc2c(N3CCNCC3)cccc12 [Example 102]
**A:** > 5 µM

**Q:** State the recorded Ki for this entry: C[C@@H](Nc1nc(NCC2CCCCCC2)nc2ccccc12)C1CC1 [Example 5]
**A:** > 5 µM

**Q:** State the recorded Ki for this entry: C[C@@H](Nc1nc(NCc2ccc(F)cc2F)nc2ccccc12)C1CC1 [Example 19]
**A:** > 5 µM

**Q:** State the recorded Ki for this entry: Cc1cc(F)cc(Nc2nc(N[C@H](C)C3CC3)c3cccc(C4=CCNCC4)c3n2)c1 [Example 107]
**A:** 1 to 5 µM

**Q:** State the recorded Ki for this entry: C[C@@H](Nc1nc(Nc2ccc(F)c(Cl)c2)nc2c(CCN)cccc12)C1CC1 [Example 60]
**A:** 1 to 5 µM

**Q:** State the recorded Ki for this entry: C[C@@H](Nc1nc(Nc2ccc(F)c(Cl)c2)nc2c(NCCN)cccc12)C1CC1 [Example 65]
**A:** > 5 µM

**Q:** State the recorded Ki for this entry: C[C@@H](Nc1nc(Nc2ccc(F)c(Cl)c2)nc2c(NCCCN)cccc12)C1CC1 [Example 66]
**A:** > 5 µM

**Q:** State the recorded Ki for this entry: C[C@@H](Nc1nc(Nc2ccc(F)c(Cl)c2)nc2c(N3CCNCC3)cccc12)C1CC1 [Example 52]
**A:** 1 to 5 µM

**Q:** State the recorded Ki for this entry: C[C@@H](Nc1nc(NCC2CCCCC2)nc2c(C3=CCNCC3)cccc12)C1CC1 [Example 76]
**A:** 1 to 5 µM

**Q:** State the recorded Ki for this entry: Fc1cc(F)cc(Nc2nc(NCc3ncc[nH]3)c3ccccc3n2)c1 [Example 22]
**A:** > 5 µM

**Q:** State the recorded Ki for this entry: C[C@@H](Nc1nc(Nc2ccc(F)c(Cl)c2)nc2c(C3=CCNCC3)cccc12)C1CC1 [Example 62]
**A:** 1 to 5 µM

**Q:** State the recorded Ki for this entry: C[C@@H](Nc1nc(Nc2ccn(C)n2)nc2c(C3=CCNCC3)cccc12)C1CC1 [Example 71]
**A:** > 5 µM

**Q:** State the recorded Ki for this entry: COc1cccc(CNc2nc(N[C@H](C)C3CC3)c3ccccc3n2)c1 [Example 27]
**A:** > 5 µM

**Q:** State the recorded Ki for this entry: C[C@@H](Nc1nc(NCc2cccc(Cl)c2F)nc2c(CN)cccc12)c1cccs1 [Example 97]
**A:** > 5 µM

**Q:** State the recorded Ki for this entry: C[C@@H](Nc1nc(Nc2cc[nH]n2)nc2c(C3=CCNCC3)cccc12)C1CC1 [Example 70]
**A:** > 5 µM

**Q:** State the recorded Ki for this entry: CCC(Nc1nc(Nc2ccc(F)c(Cl)c2)nc2ccccc12)C(C)C (stereo not shown) [Example 2]
**A:** > 5 µM

**Q:** State the recorded Ki for this entry: CC[C@@H](Nc1nc(Nc2ccc(F)c(Cl)c2)nc2c(N3CCNCC3)cccc12)c1cccs1 [Example 101]
**A:** > 5 µM

**Q:** State the recorded Ki for this entry: C[C@@H](Nc1nc(NCc2cccc(Cl)c2F)nc2c(CCN)cccc12)c1cccs1 [Example 94]
**A:** 1 to 5 µM

**Q:** State the recorded Ki for this entry: C1=C(c2cccc3c(NC(C4CC4)C4CC4)nc(NCC4CCCCC4)nc23)CCNC1 [Example 73]
**A:** 1 to 5 µM

**Q:** State the recorded Ki for this entry: C[C@@H](Nc1nc(NCc2ncco2)nc2c(C3=CCNCC3)cccc12)C1CC1 [Example 72]
**A:** > 5 µM

**Q:** State the recorded Ki for this entry: C[C@@H](Nc1nc(Nc2ccc(F)c(Cl)c2)nc2c(CCN)cccc12)c1cccs1 [Example 91]
**A:** 1 to 5 µM

**Q:** State the recorded Ki for this entry: Cc1cc(F)cc(Nc2nc(N[C@H](C)c3cccs3)c3cccc(C4=CCNCC4)c3n2)c1 [Example 89]
**A:** 1 to 5 µM

All values here come from patent US11318137B2.
